System: SRS-A (slow reacting substance of anaphylaxis) contraction of ileum
TEST DESCRIPTION: Anti-SRS-A action using ileus of guinea pigs
Type: cell-based, Hartley strain male guinea pigs
ASSAY SETUP: Cavia porcellus, 5 min, 1/1000 mM; guinea pig ileum; SRS-A 20 units; compound five minutes before; read-out: 1/1000 mM SRS-A Inhibition Ratio %
Decision: inhibition at 1 µM >= 20% yields true (1), all other cases yield false (0).

| LINE NOTATION | ASSIGNED CATEGORY |
| --- | --- |
| COc1ccc(-c2cc(=O)c3cccc(C(=O)OCCO)c3[nH]2)c(OC)c1 | true (1) |
| CCOC(=O)CC(=O)COC(=O)c1cccc2c(=O)cc(-c3ccccc3Cl)[nH]c12 | false (0) |
| C=CCOC(=O)c1cccc2c1N=C(c1ccccc1Cl)CC2=O | false (0) |
| COc1ccc(-c2cc(=O)c3cc(C(=O)O)ccc3[nH]2)c(OC)c1 | true (1) |
| Cc1ccc(-c2cc(=O)c3cccc(C(=O)O)c3[nH]2)c(C)c1 | true (1) |
| COC(=O)c1ccc2[nH]c(-c3ccc(C)cc3C)cc(=O)c2c1 | true (1) |
| COC(=O)c1ccc2[nH]c(-c3ccc(OC)c(OC)c3)cc(=O)c2c1 | true (1) |
| COc1ccccc1C1=Nc2ccc(C(=O)O)cc2C(=O)C1 | true (1) |
